Would you mind telling me the reported GI50 of each entry?
# System: MCF7 breast
# assay: NCI tumour cell line growth inhibition, 48 h

Study these solved cases before continuing.
CCCCCN(CCCCC)CC(O)c1cc(C)c2ccc3cc(C(C)C)ccc3c2c1 (stereo not given) = 1750 nM
COc1ccc2c(C3=C(c4cn(C)c5ccccc45)C(=O)NC3=O)cn(C)c2c1 = 85.3 nM
C#Cc1ccc(-n2c(/C=C/c3ccc(C(F)(F)F)cc3)nc3ncccc3c2=O)cc1 = 2490 nM
O=S(=O)(NC1=NCCN1C(=S)SN1CCn2c1nsc2=S)c1ccc(OC(F)(F)F)cc1 = 4520 nM
COc1ccc(-c2nc3sccn3c2/C(N)=N/C(=N)N)cc1OC = 56900 nM
Cc1ccc(NC2=C(Cl)C(=O)N(Cc3ccccc3)C2=O)cc1O = 32200 nM

Parameters: items (list). Returns: GI50 for each item.
1. COC1=CC(=O)c2nc(-c3ccncc3)[nH]c2C1=O
2. NC(=O)c1cccc2cn(-c3ccc([C@@H]4CCCNC4)cc3)nc12

Response:
["> 100000 nM", "6590 nM"]

Parameters: items (list). Returns: GI50 for each item.
1. CSc1nc2c(c(=O)[nH]1)N=C1c3ccccc3C(=O)C1C(c1ccccc1)N2 (stereo not given)
2. COC1=CC(c2ccc[nH]2)=N/C1=C\c1[nH]c(C)c(C(=O)OC(C)C)c1C

Response:
1. 2400 nM
2. 48.7 nM

====

# Tested on: RXF 393 renal
# assay: NCI tumour cell line growth inhibition, 48 h
Would you mind telling me the reported TGI of each entry?
Numbers only, in µM.

Study these solved cases before continuing.
CCN(CC)CCC(=O)Nc1ccc2c(c1)C(=O)c1ccc(NC(=O)CCN(CC)CC)cc1C2=O = 9.27
O=C1CC(c2ccc3c(c2)OCO3)Nc2ccccc21 (stereo not given) = 28.3
C=C(C1=CC(=O)C(C)(C)O1)[C@@H]1CC=C([C@@H]2CC[C@H]3[C@@]2(C)CC[C@H]2C(C)(C)C(=O)[C@H](O)C[C@]32C)[C@H](O)O1 = 3.59

Parameters: items (list). Returns: TGI for each item.
1. O=[N+]([O-])C(=C1NCCN1)/C(Cl)=C(\Cl)Br
2. CC(C)/C(Cl)=N\OC(=O)Nc1ccc(S(N)(=O)=O)cc1

Response:
1. 39.1
2. 25.2

Parameters: items (list). Returns: TGI for each item.
1. CC(C)=CC(=O)C1c2cccc(O)c2C(=O)c2c(O)cc(C)cc21 (stereo not given)
2. COC(=O)c1cc2c(n1S(=O)(=O)c1ccc(C)cc1)C(=O)C(=O)c1[nH]cc(C(=O)OCc3ccccc3)c1-2
3. Cc1ccc(C(=O)/C(=C/c2ccc([N+](=O)[O-])cc2)SCc2ccc(Cl)cc2)cc1

Response:
1: 4.39; 2: 0.824; 3: 7.03

Request: Could you tell me which TGI is on file for CCOC(=O)CN1C(=O)c2cccc3cc([N+](=O)[O-])cc(c23)C1=O ?
Response: 3.89

====

# Tested on: P388 leukemia
# assay: NCI tumour cell line growth inhibition, 48 h
Would you mind telling me the reported TGI of each entry?

Study these solved cases before continuing.
CC(C)CCCCCCCCCCCCC(=O)NCC(=O)NC1C(C)OC(Nc2ncnc3c2ncn3C)C(O)C1O (centres undefined) = > 100 µM
O=C1CCC23CC(C=CC=C12)n1c(=O)n(-c2ccccc2)c(=O)n13 (centres undefined) = > 100 µM
CNC(=O)C(C)C1CCC2(C)C=CC(=O)C(C)=C2C1O (centres undefined) = > 100 µM

Continue with the next compound.
Request: Could you tell me which TGI is on file for O=CN/C=C/c1cc(O)ccc1O ?
Response: 5.2 µM

====

# Tested on: TK-10 renal
# assay: NCI tumour cell line growth inhibition, 48 h
readout: TGI

Study these solved cases before continuing.
CC(=O)NC1=C(NCCC(C)C)C(=O)c2ccccc2C1=O = > 50 µM
CCCCCCCCCCCOc1ccc(C(=O)C(=O)c2ccc(OCCCCCCCCCCC)c(OCCCCCCCCCCC)c2)cc1OCCCCCCCCCCC = > 100 µM
COc1cc(/C=C/C(=N\NS(=O)(=O)c2ccc(C)cc2)c2sc(NNC(C)=O)nc2C)ccc1O = > 100 µM
Cn1c2ccccc2c2c(Nc3ccccc3)c3ccccc3nc21 = 43.8 µM

Request: Could you tell me which TGI is on file for Cc1ccccc1-n1c(=O)c2ncn(CCCl)c2n(-c2ccccc2C)c1=S ?
Response: > 100 µM

====

# Test system: SK-MEL-2 melanoma
# assay: NCI tumour cell line growth inhibition, 48 h
readout: GI50

O=C(Nc1ccc(Cl)c(Cl)c1)Nc1ccc(Cl)c(Cl)c1 = 2150 nM
CC1=C(C(=O)Nc2ccc(Cl)c(Cl)c2)C(c2cccc(Oc3ccccc3)c2)NC(=S)N1 (stereo not given) = 9380 nM
CO[C@H](C(=O)[C@@H](O)[C@@H](C)O)[C@@H]1Cc2cc3cc(O[C@H]4C[C@@H](O[C@H]5C[C@@H](O)[C@H](O)C(C)O5)[C@H](O)C(C)O4)c(C)c(O)c3c(O)c2C(=O)[C@H]1O[C@H]1C[C@@H](O[C@H]2C[C@@H](O[C@H]3C[C@](C)(O)C(=O)C(C)O3)[C@@H](O)C(C)O2)[C@H](O)C(C)O1 (stereo not given in full) = 59 nM
O=C1C(Cl)=C(Nc2cccc(Cl)c2)C(=O)N1Cc1ccc(Cl)cc1Cl = 1600 nM

Request: Could you tell me which GI50 is on file for NC(=O)c1cccc2cn(-c3ccc([C@@H]4CCCNC4)cc3)nc12 ?
Response: 19700 nM

====

# Tested on: U251 CNS
# assay: NCI tumour cell line growth inhibition, 48 h
readout: TGI (µM)
Give bare numbers, in µM.

Clc1ccc2c(NCCCCNc3nc(N4CCCCC4)nc4ccccc34)ccnc2c1 = 4.56
FC(F)(F)c1cc(Cl)cnc1N/N=C(/c1ccccc1)c1ccccn1 = 41.3

Continue with the next molecule.
Request: Could you tell me which TGI is on file for O=C(COc1ccc(Br)cc1Br)N1N=C(c2ccc([N+](=O)[O-])o2)CC1(O)c1ccccc1 (stereo unspecified) ?
Response: 22.9

====

Recorded below: GI50, system NCI-H460 lung.

Study these solved cases before continuing.
CSc1nc2c(c(=O)[nH]1)N=C1c3ccccc3C(=O)C1C(c1ccccc1)N2 (configuration not stated) = 3.16 µM
O=S(=O)(NC1=NCCN1C(=S)SN1CCn2c1nsc2=S)c1ccc(OC(F)(F)F)cc1 = 13.1 µM
CC1(C)CCc2c(c3c(c4c(=O)c(O)c(-c5ccc(O)cc5)oc24)OC(C)(C)CC3)O1 = 48.7 µM

Parameters: items (list). Returns: GI50 for each item.
1. COc1cc(-c2nn(-c3ccc(NC(=O)c4ccc(Cl)c(C(F)(F)F)c4)cc3)cc2-c2ccncc2)ccc1Cl
2. NC(=O)c1sc(-n2cnc3ccccc32)cc1OCc1ccccc1Br

Response:
1. 3.43 µM
2. 2.36 µM

Parameters: items (list). Returns: GI50 for each item.
1. COc1cc(CNc2cnc3cc(N)cc(N)c3n2)cc(OC)c1
2. COc1ccc2c(C3=C(c4cn(C)c5ccccc45)C(=O)NC3=O)cn(C)c2c1

Response:
54.4 µM
0.0982 µM

====

# System: SK-OV-3 ovarian
# assay: NCI tumour cell line growth inhibition, 48 h
readout: TGI

Cc1cc(C)nc(NS(=O)(=O)c2ccc(NC(=O)c3ccc(Cl)c4c(Nc5ccc(S(=O)(=O)Nc6nc(C)cc(C)n6)cc5)c5ccccc5nc34)cc2)n1 = 76.5 µM
C/C(CC(=O)CCC(=O)Nc1cccc(C(F)(F)F)c1)=N\NC(=O)NN = > 100 µM
CCC[C@@H](O)C[C@@H]1CCC[C@H](C[C@@H](O)CC)N1C = > 100 µM

Parameters: items (list). Returns: TGI for each item.
1. CCN(CCO)CC1CCCC2CCCCC21 (stereo not given)
2. CSc1nc2c(c(=O)[nH]1)N=C1c3ccccc3C(=O)C1C(c1ccccc1)N2 (stereo not given)

Response:
["> 100 µM", "> 100 µM"]

====

# Test system: MCF7 breast
# assay: NCI tumour cell line growth inhibition, 48 h
readout: TGI

Study these solved cases before continuing.
C#Cc1ccc(-n2c(/C=C/c3ccc(C(F)(F)F)cc3)nc3ncccc3c2=O)cc1 = 10.2 µM
C=C1c2nc3ccccc3n2C=C(c2ccccc2)N1c1ccc([N+](=O)[O-])cc1 = > 37.9 µM
CC[C@@]1(O)C(=O)OCc2c1cc1n(c2=O)Cc2c-1nc1ccccc1c2/C=N\NC(=O)CN = > 64 µM
Cn1cc(C2=C(c3cn(C)c4ncccc34)C(=O)NC2=O)c2ccccc21 = > 25 µM
CCOC(=O)Nn1c(C)nnc1-c1ccccc1 = > 100 µM

Parameters: items (list). Returns: TGI for each item.
1. CCOC(=O)N1CCC2(CC1)C[C@](C)(C(C)=O)C(C)O2 (stereo not given in full)
2. CC(C)C1/C(=N/O)CC(c2ccccc2)N(N=O)C1c1ccccc1 (stereo not given)
3. NNC(=O)Nc1cccnc1
4. Cn1cnc([N+](=O)[O-])c1Sc1nnc(-c2cccnc2)n1C
5. CC1(C)CCc2c(c3c(c4c(=O)c(O)c(-c5ccc(O)cc5)oc24)OC(C)(C)CC3)O1

Response:
1. > 100 µM
2. > 100 µM
3. > 100 µM
4. 46.8 µM
5. > 100 µM
